measured.target: Gal(a1-3)Gal(b1-4)[Fuc(a1-3)]GlcNAc
method.notes: glycan array binding signal (z-score within array); higher = stronger binding
condition.summary: glycan notation: IUPAC condensed, linker removed
Only a selection was taken, and the strongest signals are over-represented in it overall.
Short version: glycan array binding signal (z-score) at least -0.2 is criterion met, less is criterion not met.

{"binder": "SJCP3842 (Schistosoma japonicum) (protein) MFKMRIINLVNISTVLLLINLLQTKSRLVGKENGFMLTVSIYGAQLSDKMTSVPVSWTIDYEDPEKSAFKKLVTDSCDTFSEYVKSQIPKGSVDGQCTSHIFQRPGSGSGVSISLTLSFIYVDVTQPDTVALKTELEKHFANFVTIHSHKITQAQFRINQKAIVIPTGDKDAIDGSKWKIIAIIALVALAIVVIGGFIYICVK", "cat": "criterion met"}
{"binder": "Epa8 (Candida glabrata) (protein) MGSSHHHHHHSSGLVPRGSHMASSRALSDYPLGCSPLLGTKLTPGLSMELYEYPLDNHGIGPHCWDPAYLNPEYPRTGFESHKLIGTAQNVMSLNFEHRTQDCHVEFSNLPASFNFPDQITLTNFTMLLYGYFKPKESGRYRFHMEADDLLLMNLGAGNAFDCCAHEATRNNLGDYIAYDIWAGTRKDVEVFLEKEVFYPLRLFFNNRDGRAALDFSYYLNGATEPGTDIPELLFSLPDGESCPAYI", "cat": "criterion not met"}
{"binder": "SLP (Clostridium difficile), Q183M8 (protein) MATTGTQGYTVVKNDWKKAVKQLQDGLKDNSIGKITVSFNDGVVGEVAPKSANKKADRDAAAEKLYNLVNTQLDKLGDGDYVDFSVDYNLENKIITNQADAEAIVTKLNSLNEKTLIDIATKDTFGMVSKTQDSEGKNVAATKALKVKDVATFGLKSGGSEDTGYVVEMKAGAVEDKYGKVGDSTAGIAINLPSTGLEYAGKGTTIDFNKTLKVDVTGGSTPSAVAVSGFVTKDDTDLAKSGTINVRVINAKEESIDIDASSYTSAENLAKRYVFDPDEISEAYKAIVALQNDGIESNLVQLVNGKYQVIFYPEGKRLETKSLEHHHHHH", "cat": "criterion met"}
{"binder": "PA-IL (Pseudomonas aeruginosa), Q05097 (protein) MAWKGEVLANNEAGQVTSIIYNPGDVITIVAAGWASYGPTQKWGPQGDREHPDQGLICHDAFCGALVMKIGNSGTIPVNTGLFRWVAPNNVQGAITLIYNDVPGTYGNNSGSFSVNIGKDQS", "cat": "criterion met"}
{"binder": "PGP3 (Chlamydia trachomatis), P0CE18 (protein) MGNSGFYLYNTQNCVFADNIKVGQMTEPLKDQQIILGTTSTPVAAKMTASDGISLTVSNNPSTNASITIGLDAEKAYQLILEKLGDQILGGIADTIVDSTVQDILDKITTDPSLGLLKAFNNFPITNKIQCNGLFTPRNIETLLGGTEIGKFTVTPKSSGSMFLVSADIIASRMEGGVVLALVREGDSKPYAISYGYSSGVPNLCSLRTRIINTGLTPTTYSLRVGGLESGVVWVNALSNGNDILGITNTSNVSFLEVIPQTNA", "cat": "criterion not met"}
{"binder": "GH95CBM (Clostridium perfringens) (protein) EKVAVETSVYLSELEWKSASTGYGEIQKDASCDGNTITLKGENGEKVSYDKGIGTHAHSEIVYSLEGLDYYDYFETFVGVDQEMAGTVASISFEVYLDNEKVFDSGLMTGDTTQKHVKVPIAGKNTLKLVVKDGGDSIGSDHGSFGDAKLT", "cat": "criterion met"}
